All values here come from patent US20260317430.

# tested.system: human FGFR2b on KATO III cells (human, UniProt P21802)
# Sequence (P21802 22-377): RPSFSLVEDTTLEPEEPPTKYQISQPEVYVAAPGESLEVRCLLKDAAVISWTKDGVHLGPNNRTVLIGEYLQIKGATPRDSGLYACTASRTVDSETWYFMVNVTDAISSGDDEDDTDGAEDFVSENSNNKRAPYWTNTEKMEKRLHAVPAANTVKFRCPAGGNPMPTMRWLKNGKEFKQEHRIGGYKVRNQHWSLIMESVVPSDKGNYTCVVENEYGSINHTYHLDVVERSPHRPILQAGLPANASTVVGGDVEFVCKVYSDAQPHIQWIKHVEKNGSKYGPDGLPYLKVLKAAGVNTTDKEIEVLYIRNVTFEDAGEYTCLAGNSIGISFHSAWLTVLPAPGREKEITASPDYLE
# measurement.description: FACS
Let's look at some binders and their measured EC50.
Quick note: give the figure in µg/mL, leave out the unit.

Answered cases to consult:
binder	EC50 [µg/mL]
3C7 (antibody, V domains shown) VH: EIQLQQSGAELVKPGASVKMSCKASGYIFRNYYIHWVKRTPGQGLEWIGAIYPDNGDTSYNQRFKVKATLTADTSSSTAYMQLSSLTSEDSAVYYCARAFTYWGQGTTLTVSS VL: DIQMIQSPASLSASVGETVTITCGASENIYGALNWYQRKQGKSPQLLIYGATNLADGMSSRFSGSGSGRQYSLKISSLHPDDVATYYCQNVLSTPYTFGGGTKLEIK	0.2
1B8 (antibody, V domains shown) VH: QIQLQQSGAELVKPGASVKMSCKASGYTFASYNLHWVKQTPGQGLEWIGLIYPENGDTSYNQKFKGKATLTADTSSTTAYIQLSSLTSEDSAVYFCARGGFDYWGQGTSLTVSS VL: DIKMTQSPASLSASVGETVTITCGASENIYGALNWYQRKQGKSPQLLIYGATNLADGMSSRFSGSGSGRQYSLKISSLHPDDVATYYCQNVLSTPYTFGGGTKLEIK	0.133

Which EC50 reading was recorded for the binder 3F5 (antibody, V domains shown) VH: EIQLQQSGAELVKPGASVKMSCKASGYTFRYYNMHWVKRTPGQGLEWIGLIYPDNGDTSYNQKFKGKATLTADTSSSTAYMQLSSLTSEDSAVYYCARGGLDYWGQGTTLTVSS VL: DIVLTQSPASLSASVGETVTITCGASENIYGALNWYQRKQGKSPQLLIYGATNLADGMSSRFSGSGSGRQYSLKISSLHPDDVATYYCQNVLSTPYTFGGGTKLEIK ? 0.105
